Test system: NCI-H226
Assay: NCI tumour cell line growth inhibition, 48 h
Activity calls are given as the source filed them. Cut-off read from the data, not from the text of the source: active = GI50 up to about 1.1 µM and inactive = higher.
Classes used: active, inactive

COMPOUND	TEST SYSTEM	ANSWER LABEL
CCOC(=O)c1cc(I)c(-c2cc(C)no2)n1C	NCI-H226	inactive
CN[C@@H](Cc1cccc2ccccc12)C(=O)N[C@@H](CC(C)C)B(O)O	NCI-H226	active
CC(=O)O[C@H]1C(=O)[C@@]2(C)C([C@H](OC(=O)c3ccccc3)[C@]3(O)C[C@H](OC(=O)[C@H](O)[C@@H](NC(=O)c4ccc(Cl)cc4)c4ccccc4)C(C)=C1C3(C)C)C1(OC(C)=O)CO[C@@H]1C[C@@H]2O (some centres undefined)	NCI-H226	active
CCCS(=O)OC1C(C2COC(C)(C)O2)OC2OC(C)(C)OC21 (centres undefined)	NCI-H226	inactive
COCc1cc2c(cc1/C=C/[N+](=O)[O-])OCO2	NCI-H226	inactive
COC(=O)c1c(C)oc2ccc(OC(C)=O)cc12	NCI-H226	inactive
O=C(OC(/C=C/c1ccccc1)P1(=O)N(Cc2ccccc2)[C@@H]2CCCC[C@H]2N1Cc1ccccc1)c1ccccc1 (some centres undefined)	NCI-H226	inactive
CCc1ccc(NC(=O)NC(=O)c2ccccc2[N+](=O)[O-])cc1Oc1ncc(Cl)cn1	NCI-H226	active
COc1ccc(-c2c(C(C)=O)c(-c3ccccc3)n(C3OC(CO)C(O)C(O)C3O)c(=S)c2C#N)cc1 (centres undefined)	NCI-H226	inactive
